Taken from patent US5643927A.

# SUBJECT_OF_TEST: σ receptors (Cavia porcellus, UniProt Q60492)
# Sequence (Q60492 whole entry): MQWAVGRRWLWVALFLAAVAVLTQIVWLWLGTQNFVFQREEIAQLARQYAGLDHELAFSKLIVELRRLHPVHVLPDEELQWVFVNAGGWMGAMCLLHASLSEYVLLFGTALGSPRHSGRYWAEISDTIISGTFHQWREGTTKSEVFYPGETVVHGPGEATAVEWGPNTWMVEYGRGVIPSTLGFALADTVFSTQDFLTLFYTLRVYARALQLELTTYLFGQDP
# ASSAY_EXPLANATION: biochemical
# Assay type: binding
Where a name gives a salt, the structure may show the parent alone.
QUANTITY_KIND: pIC50
Here pIC50 is given on a logarithmic scale as minus log10 of the concentration in mol/L.

input: Request - read-out pIC50 | tested on σ receptors (Cavia porcellus, UniProt Q60492) | compound Cc1coc2cc(OCCCN3CCC(C(=O)c4ccc(F)cc4)CC3)ccc2c1=O [Example 3, hydrochloride]
output: 6.61

====

# SUBJECT_OF_TEST: D2 receptors (Rattus norvegicus, UniProt P61169)
# Sequence (P61169 whole entry): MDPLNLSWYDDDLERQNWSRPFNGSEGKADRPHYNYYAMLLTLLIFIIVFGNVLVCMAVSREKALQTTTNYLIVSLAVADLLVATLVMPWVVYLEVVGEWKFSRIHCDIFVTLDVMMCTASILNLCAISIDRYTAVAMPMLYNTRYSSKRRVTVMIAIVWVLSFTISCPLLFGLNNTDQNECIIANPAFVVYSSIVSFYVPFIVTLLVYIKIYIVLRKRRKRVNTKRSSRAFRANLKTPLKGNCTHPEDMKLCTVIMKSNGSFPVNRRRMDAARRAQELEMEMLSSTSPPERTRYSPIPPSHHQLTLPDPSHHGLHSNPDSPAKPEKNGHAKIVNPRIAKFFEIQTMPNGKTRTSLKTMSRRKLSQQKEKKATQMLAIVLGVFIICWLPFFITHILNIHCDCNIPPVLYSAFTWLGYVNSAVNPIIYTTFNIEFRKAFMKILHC
# ASSAY_EXPLANATION: biochemical
# Format: binding
# TEST_PARAMETERS: [3H]spiperone 2 nM, rat striatum membrane, 20 min, 35° C., pH 7.4; read-out: IC50 (M) D2
Structures can show the parent of a compound that is named as a salt.
QUANTITY_KIND: IC50 (M)
Report the figure in M without appending any unit label.

Please review the entries below; each comes with its answer.
In [3]: df
Out[3]:
                                   molecule  unit_string  recorded_number
0  OC(CCCN1CCN(c2ncc(F)cn2)CC1)c1ccc(F)cc1 (stereo not drawn) [BMY-14802, reference compound]            M         1.59e-05
1  Cc1cc(=O)c2ccc(OCCCN3CCC(C(=O)c4ccc(F)cc4)CC3)cc2o1 [Example 2, hydrochloride]            M         3.74e-07

input: Using the record for Cl.O=C(c1ccc(F)cc1)C1CCN(CCCOc2ccc3c(=O)ccoc3c2)CC1 [Example 1, hydrochloride] , report its IC50.
output: 4.36e-07
